These measurements were taken from the supplement of paper PMC11246515.

- Experiment Description: total protein half-life in vivo (active degradation + dilution); higher = more stable protein
- Test Parameters: wild type E. coli NCM3722; growth: P-lim chemostat; doubling time 6 h
Measurement Kind: total protein half-life in vivo (h)
Give bare numbers, in h.

Illustrative cases are given below, each with its answer.
biosequence=MPLPDFRLIRLLPLAALVLTACSVTTPKGPGKSPDSPQWRQHQQDVRNLNQYQTRGAFAYISDQQKVYARFFWQQTGQDRYRLLLTNPLGSTELELNAQPGNVQLVDNKGQRYTADDAEEMIGKLTGMPIPLNSLRQWILGLPGDATDYKLDDQYRLSEITYSQNGKNWKVVYGGYDTKTQPAMPANMELTDGGQRIKLKMDNWIVK measurement_kind="total protein half-life in vivo" number=6.17
biosequence=MAISSRNTLLAALAFIAFQAQAVNVTVAYQTSAEPAKVAQADNTFAKESGATVDWRKFDSGASIVRALASGDVQIGNLGSSPLAVAASQQVPIEVFLLASKLGNSEALVVKKTISKPEDLIGKRIAVPFISTTHYSLLAALKHWGIKPGQVEIVNLQPPAIIAAWQRGDIDGAYVWAPAVNALEKDGKVLTDSEQVGQWGAPTLDVWVVRKDFAEKHPEVVKAFAKSAIDAQQPYIANPDVWLKQPENISKLARLSGVPEGDVPGLVKGNTYLTPQQQTAELTGPVNKAIIDTAQFLKEQGKVPAVANDYSQYVTSRFVQ measurement_kind="total protein half-life in vivo" number=6.77
biosequence=MDMHSGTFNPQDFAWQGLTLTPAAAIHIRELVAKQPGMVGVRLGVKQTGCAGFGYVLDSVSEPDKDDLLFEHDGAKLFVPLQAMPFIDGTEVDFVREGLNQIFKFHNPKAQNECGCGESFGV measurement_kind="total protein half-life in vivo" number=2.69
biosequence=MKLKNTLLASALLSAMAFSVNAATELTPEQAAAVKPFDRVVVTGRFNAIGEAVKAVSRRADKEGAASFYVVDTSDFGNSGNWRVVADLYKADAEKAEETSNRVINGVVELPKDQAVLIEPFDTVTVQGFYRSQPEVNDAITKAAKAKGAYSFYIVRQIDANQGGNQRITAFIYKKDAKKRIVQSPDVIPADSEAGRAALAAGGEAAKKVEIPGVATTASPSSEVGRFFETQSSKGGRYTVTLPDGTKVEELNKATAAMMVPFDSIKFSGNYGNMTEVSYQVAKRAAKKGAKYYHITRQWQERGNNLTVSADLYK measurement_kind="total protein half-life in vivo" number=5.61
biosequence=MDLNTLISQYGYAALVIGSLAEGETVTLLGGVAAHQGLLKFPLVVLSVALGGMIGDQVLYLCGRRFGGKLLRRFSKHQDKIERAQKLIQRHPYLFVIGTRFMYGFRVIGPTLIGASQLPPKIFLPLNILGAFAWALIFTTIGYAGGQVIAPWLHNLDQHLKHWVWLILVVVLVVGVRWWLKRRGKKKPDHQA measurement_kind="total protein half-life in vivo" number=6.18

Turning to the following sequence.
Field request: total protein half-life in vivo | item: MNSHNITNESLALALMLVVVAILISHKEKLALEKDILWSVGRAIIQLIIVGYVLKYIFSVDDASLTLLMVLFICFNAAWNAQKRSKYIAKAFISSFIAITVGAGITLAVLILSGSIEFIPMQVIPIAGMIAGNAMVAVGLCYNNLGQRVISEQQQIQEKLSLGATPKQASAILIRDSIRAALIPTVDSAKTVGLVSLPGMMSGLIFAGIDPVKAIKYQIMVTFMLLSTASLSTIIACYLTYRKFYNSRHQLVVTQLKKK
6.28

====

- Experiment Description: total protein half-life in vivo (active degradation + dilution); higher = more stable protein
- Test Parameters: wild type E. coli NCM3722; growth: P-lim chemostat; doubling time 6 h
Measurement Kind: total protein half-life in vivo (h)
One number for each entry, in h.

Illustrative cases are given below, each with its answer.
biosequence="MKPSSSNSRSKGHAKARRKTREELDQEARDRKRQKKRRGHAPGSRAAGGNTTSGSKGQNAPKDPRIGSKTPIPLGVTEKVTKQHKPKSEKPMLSPQAELELLETDERLDALLERLEAGETLSAEEQSWVDAKLDRIDELMQKLGLSYDDDEEEEEDEKQEDMMRLLRGN [P0A8H6]" measurement_kind="total protein half-life in vivo" unit_annotation=h number=2.98
biosequence="MKVMRTTVATVVAATLSMSAFSVFAEASLTGAGATFPAPVYAKWADTYQKETGNKVNYQGIGSSGGVKQIIANTVDFGASDAPLSDEKLAQEGLFQFPTVIGGVVLAVNIPGLKSGELVLDGKTLGDIYLGKIKKWDDEAIAKLNPGLKLPSQNIAVVRRADGSGTSFVFTSYLAKVNEEWKNNVGTGSTVKWPIGLGGKGNDGIAAFVQRLPGAIGYVEYAYAKQNNLAYTKLISADGKPVSPTEENFANAAKGADWSKTFAQDLTNQKGEDAWPITSTTFILIHKDQKKPEQGTEVLKFFDWAYKTGAKQANDLDYASLPDSVVEQVRAAWKTNIKDSSGKPLY [P0AG82]" measurement_kind="total protein half-life in vivo" unit_annotation=h number=5.67

Turning to the following sequence.
Field request: total protein half-life in vivo | item: MKGGKRVQTARPNRINGEIRAQEVRLTGLEGEQLGIVSLREALEKAEEAGVDLVEISPNAEPPVCRIMDYGKFLYEKSKSSKEQKKKQKVIQVKEIKFRPGTDEGDYQVKLRSLIRFLEEGDKAKITLRFRGREMAHQQIGMEVLNRVKDDLQELAVVESFPTKIEGRQMIMVLAPKKKQ [P0A707]
4.89

====

- Experiment Description: total protein half-life in vivo (active degradation + dilution); higher = more stable protein
- Test Parameters: wild type E. coli NCM3722; growth: C-lim chemostat; doubling time 6 h
Kindly state total protein half-life in vivo for each of the entries shown.
Give bare numbers, in h.

Illustrative cases are given below, each with its answer.
biosequence=MRRTFIKKEGVVITTLARYLLGEKCGNRLKTIDELANECRSSVGLTQAALKTLESSGAIRIERRGRNGSYLVEMDNKALLTHVDINNVVCAMPLPYTRLYEGLASGLKAQFDGIPFYYAHMRGADIRVECLLNGVYDMAVVSRLAAESYLTQKGLCLALELGPHTYVGEHQLICRKGESANVKRVGLDNRSADQKIMTDVFFGGSDVERVDLSYHESLQRIVKGDVDAVIWNVVAENELTMLGLEATPLTDDPRFLQATEAVVLTRVDDYPMQQLLRAVVDKHALLAHQQRVVSGEQEPSY number=5.3
biosequence="MQARVKWVEGLTFLGESASGHQILMDGNSGDKAPSPMEMVLMAAGGCSAIDVVSILQKGRQDVVDCEVKLTSERREEAPRLFTHINLHFIVTGRDLKDAAVARAVDLSAEKYCSVALMLEKAVNITHSYEVVAA [P0ADX1]" number=6.49
biosequence=MSKPIVMERGVKYRDADKMALIPVKNVATEREALLRKPEWMKIKLPADSTRIQGIKAAMRKNGLHSVCEEASCPNLAECFNHGTATFMILGAICTRRCPFCDVAHGRPVAPDANEPVKLAQTIADMALRYVVITSVDRDDLRDGGAQHFADCITAIREKSPQIKIETLVPDFRGRMDRALDILTATPPDVFNHNLENVPRIYRQVRPGADYNWSLKLLERFKEAHPEIPTKSGLMVGLGETNEEIIEVMRDLRRHGVTMLTLGQYLQPSRHHLPVQRYVSPDEFDEMKAEALAMGFTHAACGPFVRSSYHADLQAKGMEVK number=1.93

Field: total protein half-life in vivo. Fill in for each record below.
1. MAKHLFTSESVSEGHPDKIADQISDAVLDAILEQDPKARVACETYVKTGMVLVGGEITTSAWVDIEEITRNTVREIGYVHSDMGFDANSCAVLSAIGKQSPDINQGVDRADPLEQGAGDQGLMFGYATNETDVLMPAPITYAHRLVQRQAEVRKNGTLPWLRPDAKSQVTFQYDDGKIVGIDAVVLSTQHSEEIDQKSLQEAVMEEIIKPILPAEWLTSATKFFINPTGRFVIGGPMGDCGLTGRKIIVDTYGGMARHGGGAFSGKDPSKVDRSAAYAARYVAKNIVAAGLADRCEIQVSYAIGVAEPTSIMVETFGTEKVPSEQLTLLVREFFDLRPYGLIQMLDLLHPIYKETAAYGHFGREHFPWEKTDKAQLLRDAAGLK [P0A817]
2. MVINCAFIGFGKSTTRYHLPYVLNRKDSWHVAHIFRRHAKPEEQAPIYSHIHFTSDLDEVLNDPDVKLVVVCTHADSHFEYAKRALEAGKNVLVEKPFTPTLAQAKELFALAKSKGLTVTPYQNRRFDSCFLTAKKAIESGKLGEIVEVESHFDYYRPVAETKPGLPQDGAFYGLGVHTMDQIISLFGRPDHVAYDIRSLRNKANPDDTFEAQLFYGDLKAIVKTSHLVKIDYPKFIVHGKKGSFIKYGIDQQETSLKANIMPGEPGFAADDSVGVLEYVNDEGVTVREEMKPEMGDYGRVYDALYQTITHGAPNYVKESEVLTNLEILERGFEQASPSTVTLAK

1. 4.63
2. 5.58
